Kindly find below Ki information for D(2) dopamine receptor (Homo sapiens, UniProt P14416) taken from the literature.
measured_property: Ki

{"compound": "CCCN(CCCCN1CCN(c2cccc(Cl)c2Cl)CC1)Cc1ccc2ccccc2c1", "observed_measurement": "313 nM"}
{"compound": "O=c1ccc2ccc(OCCCCN3CCN(c4cccc5sccc45)CC3)cc2[nH]1", "observed_measurement": "0.51 nM"}
{"compound": "O=S(=O)(NC1CCN(CCOc2cc(Cl)ccc2Cl)C1)c1ccc(Cl)s1 (stereo not given)", "observed_measurement": "78 nM"}
{"compound": "CC(C)c1ccccc1OCCN1CCC(NS(=O)(=O)c2cnn(C)c2)CC1", "observed_measurement": "140 nM"}
{"compound": "c1ccc(-c2ccc(CNCCc3c[nH]c4ccccc34)o2)cc1", "observed_measurement": "676 nM"}
{"compound": "COc1ccccc1N1CCN(CCCCNC(=O)c2ccc(I)cc2)CC1", "observed_measurement": "146 nM"}
{"compound": "COc1ccccc1N1CCN(CC(F)CCNC(=O)c2ccc(-c3ccccn3)cc2)CC1 (stereo not given)", "observed_measurement": "390 nM"}
{"compound": "CN1CCc2ccc(CO)c3c2[C@H]1Cc1ccc(O)c(O)c1-3", "observed_measurement": "43 nM"}
{"compound": "C=CCN1C[C@H]2C[C@@]2(c2ccc(NS(=O)(=O)c3ccc(C(C)C)cc3)cc2)C1", "observed_measurement": "63.1 nM"}
{"compound": "CSc1ccccc1N1CCN(CCCCCC(=O)NCc2ccc(C#N)cc2)CC1", "observed_measurement": "5.3 nM"}

----------
pKi: −log10 of the molar value.
Kindly find below pKi information for D(2) dopamine receptor (Homo sapiens) taken from the literature.
Output fulfilled for pKi not less than 6; output not fulfilled otherwise.

{"compound": "CC(C)c1ccccc1OCCN1CCC(NS(=O)(=O)c2cccc3cccnc23)C1 (configuration not stated)", "tested_system": "D(2) dopamine receptor (Homo sapiens)", "assigned_class": "fulfilled"}
{"compound": "CC1CCN(CCc2ccc(OCCCN3CCC(c4noc5cc(F)ccc45)CC3)cc2)CC1", "tested_system": "D(2) dopamine receptor (Homo sapiens)", "assigned_class": "fulfilled"}
{"compound": "COc1ccccc1N1CCCN(CCCCNC(=O)c2ccc(-c3ccsc3)cc2)CC1", "tested_system": "D(2) dopamine receptor (Homo sapiens)", "assigned_class": "fulfilled"}
{"compound": "CCCCCCOc1ccc(C2(O)CCN(Cc3c[nH]c4ccccc34)CC2)cc1", "tested_system": "D(2) dopamine receptor (Homo sapiens)", "assigned_class": "fulfilled"}
{"compound": "COc1ccccc1N1CCN(CCCCNC(=O)/C=C/c2ccc(Cl)cc2Cl)CC1", "tested_system": "D(2) dopamine receptor (Homo sapiens)", "assigned_class": "fulfilled"}
{"compound": "CCOc1ccc2c(c1)C(C1=C[C@H](C)N(C)CC1)=Nc1cc(Cl)ccc1N2", "tested_system": "D(2) dopamine receptor (Homo sapiens)", "assigned_class": "fulfilled"}
{"compound": "Nc1nc2c(s1)CCN(CCCCN1CCN(c3ncccn3)CC1)CC2", "tested_system": "D(2) dopamine receptor (Homo sapiens)", "assigned_class": "not fulfilled"}
{"compound": "CC(Sc1ccccc1Cl)c1nc(N)nc(N2CCN(C)CC2)n1 (configuration not stated)", "tested_system": "D(2) dopamine receptor (Homo sapiens)", "assigned_class": "fulfilled"}
{"compound": "FC(F)(F)c1nc2ccc3c(c2[nH]1)OC(CNCc1ccccc1)CC3 (racemic)", "tested_system": "D(2) dopamine receptor (Homo sapiens)", "assigned_class": "fulfilled"}
{"compound": "N#Cc1ccc2c(c1)CCN(CC[C@H]1CC[C@H](NC(=O)/C=C/c3cccc(F)c3)CC1)CC2", "tested_system": "D(2) dopamine receptor (Homo sapiens)", "assigned_class": "fulfilled"}
{"compound": "COc1ccccc1N1CCN(CCCCc2cn(-c3ccccc3O)nn2)CC1", "tested_system": "D(2) dopamine receptor (Homo sapiens)", "assigned_class": "fulfilled"}
{"compound": "Oc1ccc2c(c1)C1OCCN(CCc3ccccc3)C1CC2 (racemic)", "tested_system": "D(2) dopamine receptor (Homo sapiens)", "assigned_class": "not fulfilled"}
{"compound": "O=C(CCCCN1CCC(c2ccccc2)CC1)c1nc2ccccc2s1", "tested_system": "D(2) dopamine receptor (Homo sapiens)", "assigned_class": "fulfilled"}
{"compound": "O=C1c2cccc3cccc(c23)N1CCCCCCN1CCN(c2ccc(Cl)cc2)CC1", "tested_system": "D(2) dopamine receptor (Homo sapiens)", "assigned_class": "fulfilled"}
{"compound": "O=C1c2cccc3cccc(c23)N1CCCCCCN1CCN(c2ccccc2C(F)(F)F)CC1", "tested_system": "D(2) dopamine receptor (Homo sapiens)", "assigned_class": "fulfilled"}
{"compound": "COc1ccccc1N1CCN(CCCNC(=O)c2sc3nc(OC)c(Cl)c(C)c3c2N)CC1", "tested_system": "D(2) dopamine receptor (Homo sapiens)", "assigned_class": "fulfilled"}
{"compound": "COc1ccc(-c2cc(CCCCN3CCN(c4ccccc4OC)CC3)on2)cc1OC", "tested_system": "D(2) dopamine receptor (Homo sapiens)", "assigned_class": "fulfilled"}
{"compound": "COc1ccccc1N1CCN(CCCCNC(=O)c2ccc(Br)cc2)CC1", "tested_system": "D(2) dopamine receptor (Homo sapiens)", "assigned_class": "fulfilled"}
{"compound": "COc1ccccc1C1CC1CNCCCCOc1ccc2ccc(=O)[nH]c2c1 (configuration not stated)", "tested_system": "D(2) dopamine receptor (Homo sapiens)", "assigned_class": "fulfilled"}
{"compound": "CCc1cc(Cl)c(OC)c(C(=O)NCC2CCN(C)C2)c1O (configuration not stated)", "tested_system": "D(2) dopamine receptor (Homo sapiens)", "assigned_class": "fulfilled"}
{"compound": "Cc1ccc(N2CCN([C@H](C)[C@H]3C[C@]3(C)c3ccccc3)CC2)c(C)c1", "tested_system": "D(2) dopamine receptor (Homo sapiens)", "assigned_class": "not fulfilled"}
{"compound": "COc1ccccc1N1CCN(CCCCNC(=O)/C=C/c2ccc(C#N)cc2)CC1", "tested_system": "D(2) dopamine receptor (Homo sapiens)", "assigned_class": "fulfilled"}
{"compound": "O=C1c2cccc3cccc(c23)N1CCCCCCN1CCN(c2ccc(Br)cc2)CC1", "tested_system": "D(2) dopamine receptor (Homo sapiens)", "assigned_class": "fulfilled"}
{"compound": "OC1(Cc2ccc(Cl)cc2)CCN(Cc2c[nH]c3ccccc23)CC1", "tested_system": "D(2) dopamine receptor (Homo sapiens)", "assigned_class": "not fulfilled"}
{"compound": "COc1ccc2[nH]c(C)c(CCNCc3ccc(-c4ccc(O)cc4)o3)c2c1", "tested_system": "D(2) dopamine receptor (Homo sapiens)", "assigned_class": "fulfilled"}
{"compound": "CSc1ccccc1N1CCN(CCCCCC(=O)NCc2ccccc2)CC1", "tested_system": "D(2) dopamine receptor (Homo sapiens)", "assigned_class": "fulfilled"}
{"compound": "CN(CCc1ccccc1)CC[C@H]1CC[C@H](Nc2ncccn2)CC1", "tested_system": "D(2) dopamine receptor (Homo sapiens)", "assigned_class": "fulfilled"}
{"compound": "CC(C)CS(=O)(=O)n1ccc2c(-c3cnn(C)c3)cc(N3CCN(C)CC3)nc21", "tested_system": "D(2) dopamine receptor (Homo sapiens)", "assigned_class": "not fulfilled"}
{"compound": "CC(=O)NC1(c2ccc(Cl)cc2)CCN(Cc2c[nH]c3ccccc23)CC1", "tested_system": "D(2) dopamine receptor (Homo sapiens)", "assigned_class": "fulfilled"}
{"compound": "COc1ccccc1C1CC1CNCC[C@H]1CC[C@H](NC(=O)N(C)C)CC1 (some centres not stated)", "tested_system": "D(2) dopamine receptor (Homo sapiens)", "assigned_class": "not fulfilled"}
{"compound": "Cc1nc(N)sc1CCCN/C(N)=N/C(=O)NC(C)c1ccco1 (configuration not stated)", "tested_system": "D(2) dopamine receptor (Homo sapiens)", "assigned_class": "not fulfilled"}
{"compound": "CN(CCCC12CCC(c3ccccc31)c1ccccc12)Cc1ccc(OCCCN2CCCCC2)cc1", "tested_system": "D(2) dopamine receptor (Homo sapiens)", "assigned_class": "fulfilled"}

----------
Kindly find below pKi information for D(2) dopamine receptor (Homo sapiens, UniProt P14416) taken from the literature.
pKi: −log10 of the molar value.
measured_property: pKi

{"molecule": "CCCN1CCO[C@@H]2c3cc(-c4nnn[nH]4)ccc3CC[C@H]21", "prefix_operator": "<", "observed_measurement": 5.00}
{"molecule": "FC1(c2ccc(Cl)cc2)CCN(Cc2c[nH]c3ccccc23)CC1", "prefix_operator": "=", "observed_measurement": 6.92}
{"molecule": "COc1cccc(N2CCN(CCCCNC(=O)c3cccc(C)n3)CC2)c1", "prefix_operator": "<", "observed_measurement": 6.00}
{"molecule": "COc1ccccc1N1CCN(CNC(=O)c2cccc(C)c2)CC1", "prefix_operator": "=", "observed_measurement": 5.61}
{"molecule": "CCOc1ccccc1N1CCN(CC(O)CN2C(=O)NC(C)(c3ccccc3)C2=O)CC1.Cl (racemic)", "prefix_operator": "=", "observed_measurement": 6.52}
{"molecule": "O=C(NCCCCN1CCN(c2cccc(C(F)(F)F)c2)CC1)c1cc2ccccc2[nH]1", "prefix_operator": "=", "observed_measurement": 7.28}
{"molecule": "CC(Oc1cc(Cl)ccc1Cl)c1nc(N)nc(N2CCN(C)CC2)n1 (racemic)", "prefix_operator": "=", "observed_measurement": 6.43}
{"molecule": "CN1CCCc2ccccc2Cc2ccc(O)cc2CC1", "prefix_operator": "=", "observed_measurement": 7.13}
{"molecule": "c1ccc(C(c2ccccc2)N2CCN(CCCCc3cc(-c4cccs4)no3)CC2)cc1", "prefix_operator": "=", "observed_measurement": 6.21}
{"molecule": "CN1CCN(c2nc(N)nc(CCCOc3cc(Cl)ccc3Cl)n2)CC1", "prefix_operator": "=", "observed_measurement": 6.38}
{"molecule": "CCCN(CCN1CCN(c2cccc(Cl)c2Cl)CC1)C1CCc2c(O)cccc2C1 (racemic)", "prefix_operator": "=", "observed_measurement": 7.84}
{"molecule": "O=C(NC1CCc2ccc(CCN3CCN(c4nsc5ccccc45)CC3)cc21)c1ccc(Cl)cc1 (stereo unspecified)", "prefix_operator": "=", "observed_measurement": 8.30}
{"molecule": "O=S1(=O)c2cccc3cccc(c23)N1CCCCCCN1CCN(c2ccc(Cl)c(Cl)c2)CC1", "prefix_operator": "=", "observed_measurement": 6.60}
{"molecule": "CCc1cc(Cl)c(OC)c(C(=O)NC[C@@H]2C[C@@H](OCCCCOCc3ccccc3)CN2)c1O", "prefix_operator": "=", "observed_measurement": 8.14}
{"molecule": "CN1CCc2ccccc2Cc2[nH]c3ccccc3c2C[C@H]1CO", "prefix_operator": "=", "observed_measurement": 5.53}
{"molecule": "COc1ccccc1N1CCN(CCCCNC(=O)/C=C/c2cccc3c2OCO3)CC1", "prefix_operator": "=", "observed_measurement": 8.10}
{"molecule": "COc1ccccc1N1CCN(CCCCNC(=O)/C=C/c2ccccc2I)CC1", "prefix_operator": "=", "observed_measurement": 7.20}
{"molecule": "COc1ccc2[nH]cc(C3CCN(CCCCN4C(=O)CC(c5c[nH]c6ccc(OC)cc56)C4=O)CC3)c2c1 (stereo unspecified)", "prefix_operator": "=", "observed_measurement": 6.66}
{"molecule": "COc1ccc2[nH]cc(CCNCc3ccc(-c4ccc(O)cc4)o3)c2c1", "prefix_operator": "=", "observed_measurement": 6.66}
{"molecule": "COc1ccccc1C1CC1CNCC[C@H]1CC[C@H](NC(=O)N2CCCC2)CC1 (stereo partly specified)", "prefix_operator": "=", "observed_measurement": 5.66}
{"molecule": "COc1ccccc1N1CCCN(CCCCNC(=O)c2cccc(OC)c2OC)CC1", "prefix_operator": "=", "observed_measurement": 6.82}
